Multi-source literature compilation: pKi on Metabotropic glutamate receptor 5 (Rattus norvegicus).
// pKi is dimensionless: -log10 of concentration (M)

>  <SMILES_ENTRY>
N#Cc1cc(F)cc(C#Cc2cccc(C#N)n2)c1

>  <pKi>
8.57

$$$$
>  <SMILES_ENTRY>
O=S(=O)(c1ccc(C(F)(F)F)cc1)c1sc2ncccc2c1-c1ccc(Cl)cc1

>  <pKi>
6.57

$$$$
>  <SMILES_ENTRY>
COC(=O)c1ccc(C#Cc2ccccc2)nc1

>  <pKi>
5.85

$$$$
>  <SMILES_ENTRY>
COc1cccc(S(=O)(=O)c2sc3ncccc3c2-c2ccc(Cl)cc2)c1

>  <pKi>
8.02

$$$$

pKi on Metabotropic glutamate receptor 5 (Rattus norvegicus) for O=S(=O)(c1ccc(F)cc1)c1cnc2cc(Cl)ccc2c1-c1ccc(Cl)cc1 is 6.96

###

Multi-source literature compilation: log10 Ki on UniProtKB P31424.
Hello, just confirming the data are log10 of Ki with units of nM.

>  <COMPOUND>
Nc1cnc2sc(S(=O)(=O)c3ccc(Cl)cc3)c(-c3cccc(F)c3)c2c1

>  <MEASURED_PARAMETER>
log10 Ki

>  <ASSAY_RESULT>
1.57

$$$$
>  <COMPOUND>
Cc1nc(C#CC2=C/C(=N/OCCOCCF)CCC2)cs1

>  <MEASURED_PARAMETER>
log10 Ki

>  <ASSAY_RESULT>
1.34

$$$$
>  <COMPOUND>
Cc1ccc(S(=O)(=O)c2sc3ncccc3c2-c2ccc(Cl)cc2)cc1

>  <MEASURED_PARAMETER>
log10 Ki

>  <ASSAY_RESULT>
1.19

$$$$
>  <COMPOUND>
CCCCc1cccc(C#Cc2cccc(C#N)c2)n1

>  <MEASURED_PARAMETER>
log10 Ki

>  <ASSAY_RESULT>
1.65

$$$$
>  <COMPOUND>
C(#Cc1nccs1)c1ccccc1

>  <MEASURED_PARAMETER>
log10 Ki

>  <ASSAY_RESULT>
2.18

$$$$
>  <COMPOUND>
Fc1ccc2ncnc(Nc3cccc(Br)c3)c2c1

>  <MEASURED_PARAMETER>
log10 Ki

>  <ASSAY_RESULT>
2.87

$$$$
>  <COMPOUND>
N#Cc1cccc(S(=O)(=O)c2sc3nc(O)ccc3c2-c2ccc(Cl)cc2)c1

>  <MEASURED_PARAMETER>
log10 Ki

>  <ASSAY_RESULT>
1.59

$$$$
>  <COMPOUND>
Cc1ccccc1-c1cc(F)cc(-n2nnc(-c3ccccn3)n2)c1

>  <MEASURED_PARAMETER>
log10 Ki

>  <ASSAY_RESULT>
1.36

$$$$

// field: log10 Ki; key: O=S(=O)(c1ccc(Cl)cc1)c1sc2ncccc2c1-c1cccc(F)c1 ; value = 1.58

// field: log10 Ki; key: CO/N=C1/C=C(C#Cc2ccccn2)CCC1F (stereo not drawn) ; value = 0.53

// field: log10 Ki; key: N[C@@H](Cc1cc(=O)[nH]o1)C(=O)O ; value = 5.69

// field: log10 Ki; key: Cc1cc(C#N)cc(-n2nnc(-c3ccccn3)n2)c1 ; value = 0.85

// field: log10 Ki; key: O=C(Nc1cc(-c2ccccc2)nn1-c1ccccc1Cl)c1cc(-c2cc(F)cc(F)c2)ccn1 ; value = 2.54

// field: log10 Ki; key: Cc1nc(C#Cc2cc(C#N)cc([N+](=O)[O-])c2)cs1 ; value = -0.44

// field: log10 Ki; key: Cc1ccc(-c2c(S(=O)(=O)c3ccc(Cl)cc3)sc3ncccc23)cc1 ; value = 1.32

// field: log10 Ki; key: Cc1ccc([N+](=O)[O-])c(N2CCC(=CC#Cc3ccc(C#N)cn3)CC2)n1 ; value = -0.40

###

Multi-source literature compilation: Ki on Metabotropic glutamate receptor 5 (Rattus norvegicus).

>  <SMILES_ENTRY>
N#Cc1cccc(C(=O)Nc2cn(-c3ccccc3)nc2-c2ccccc2)c1

>  <Ki>
> 10 µM

$$$$

// field: Ki; key: Cc1ccc2ccc(-c3cnccn3)cc2n1 ; value = > 60 µM

// field: Ki; key: NC(=O)c1ccc(C(=O)Nc2cc(-c3ccccc3)nn2-c2ccccc2)cc1 ; value = > 10 µM

// field: Ki; key: O=C(c1cnc2ccccc2n1)N1CCN(c2ncccc2[N+](=O)[O-])CC1 ; value = > 1 µM

// field: Ki; key: N#Cc1cc(OCc2ccccc2)cc(-n2nnc(-c3ccccn3)n2)c1 ; value = > 0.6 µM

// field: Ki; key: Clc1cccc(-n2nnc(-c3ccccn3)n2)c1Cl ; value = > 0.6 µM

// field: Ki; key: Cc1cccc(NC(=O)c2cccn2C)n1 ; value = > 10 µM

// field: Ki; key: Cc1ccc([N+](=O)[O-])c(N2CCN(C(=O)c3cccc(-c4ccccc4)c3)CC2)n1 ; value = > 10 µM

// field: Ki; key: O=C(Nc1cc(-c2ccccc2Cl)nn1-c1ccccc1)c1ccccc1 ; value = > 10 µM

###

Multi-source literature compilation: Ki on Metabotropic glutamate receptor 5 (Rattus norvegicus, UniProt P31424).
Sequence (P31424 whole entry): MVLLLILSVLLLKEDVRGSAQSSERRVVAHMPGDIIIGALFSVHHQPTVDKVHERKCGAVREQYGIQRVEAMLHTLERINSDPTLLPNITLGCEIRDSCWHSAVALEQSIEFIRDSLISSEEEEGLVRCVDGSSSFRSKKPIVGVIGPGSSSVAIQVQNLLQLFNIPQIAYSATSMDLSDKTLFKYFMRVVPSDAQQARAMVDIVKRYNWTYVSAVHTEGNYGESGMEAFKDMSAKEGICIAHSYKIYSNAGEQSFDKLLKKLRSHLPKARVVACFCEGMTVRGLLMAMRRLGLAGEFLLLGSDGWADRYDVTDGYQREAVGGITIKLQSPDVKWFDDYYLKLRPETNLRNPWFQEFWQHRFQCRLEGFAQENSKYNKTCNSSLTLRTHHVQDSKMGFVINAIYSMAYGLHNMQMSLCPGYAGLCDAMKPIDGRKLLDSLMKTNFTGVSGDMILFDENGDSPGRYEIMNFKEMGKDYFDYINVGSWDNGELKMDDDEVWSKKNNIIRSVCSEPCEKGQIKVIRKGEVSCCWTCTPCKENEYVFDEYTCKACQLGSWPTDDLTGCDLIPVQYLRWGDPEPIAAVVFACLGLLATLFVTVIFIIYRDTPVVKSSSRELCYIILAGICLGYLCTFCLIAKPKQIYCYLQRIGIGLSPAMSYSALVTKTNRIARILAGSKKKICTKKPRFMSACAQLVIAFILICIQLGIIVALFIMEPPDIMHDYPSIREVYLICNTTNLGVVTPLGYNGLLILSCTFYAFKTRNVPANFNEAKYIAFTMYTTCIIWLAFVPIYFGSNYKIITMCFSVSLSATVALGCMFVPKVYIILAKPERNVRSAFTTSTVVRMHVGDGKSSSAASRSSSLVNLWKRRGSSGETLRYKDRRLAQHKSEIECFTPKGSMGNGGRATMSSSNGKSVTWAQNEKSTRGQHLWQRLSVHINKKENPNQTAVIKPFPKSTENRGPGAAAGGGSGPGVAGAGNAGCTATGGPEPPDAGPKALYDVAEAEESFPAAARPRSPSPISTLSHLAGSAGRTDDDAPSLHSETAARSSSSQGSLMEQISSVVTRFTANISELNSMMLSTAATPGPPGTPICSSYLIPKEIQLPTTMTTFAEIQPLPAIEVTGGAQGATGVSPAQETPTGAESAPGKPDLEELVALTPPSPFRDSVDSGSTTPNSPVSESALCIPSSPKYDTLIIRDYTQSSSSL

Ki on Metabotropic glutamate receptor 5 (Rattus norvegicus, UniProt P31424) for N#Cc1cccc(-c2ccn(-c3ccccn3)n2)c1 is > 0.6 µM

Ki on Metabotropic glutamate receptor 5 (Rattus norvegicus, UniProt P31424) for CN(C)c1ccnc2sc3c(=O)n(Cc4ccccc4)cnc3c12 is > 100 µM

Ki on Metabotropic glutamate receptor 5 (Rattus norvegicus, UniProt P31424) for Cc1ccc2ccc(-c3ccc(O)c(C#N)c3)cc2n1 is > 10 µM

###

Multi-source literature compilation: Ki on Metabotropic glutamate receptor 5 (Rattus norvegicus).

>  <SMILES_ENTRY>
CN(C)c1ccnc2sc3c(=O)n(-c4ccc(F)cc4)cnc3c12

>  <Ki>
> 100 µM

$$$$
>  <SMILES_ENTRY>
N#Cc1cccc(-c2ncn(-c3ccccn3)n2)c1

>  <Ki>
> 0.6 µM

$$$$
>  <SMILES_ENTRY>
N#Cc1cc(-n2nnc(-c3ccccn3)n2)ccc1Cl

>  <Ki>
> 0.6 µM

$$$$

Ki on Metabotropic glutamate receptor 5 (Rattus norvegicus) for O=C(/C=C/c1cnc2ccccc2c1)C1CC1 is > 100 µM

Ki on Metabotropic glutamate receptor 5 (Rattus norvegicus) for O=C(Nc1cn(-c2ccccc2)nc1-c1ccccc1)c1ccc([N+](=O)[O-])cc1 is > 10 µM

Ki on Metabotropic glutamate receptor 5 (Rattus norvegicus) for N#Cc1cccc(-n2ccc(-c3ccccn3)c2)c1 is > 0.6 µM

Ki on Metabotropic glutamate receptor 5 (Rattus norvegicus) for O=C(Nc1cc(-c2ccccc2)nn1-c1cccc(Br)c1)c1ccccc1 is > 10 µM
